Just for reference, patent US4994258A is where these values come from.

test: In vivo distribution of tritiated radioligand in pancreas; conditions: in vivo, iv, 1 mg/kg
measure: tissue uptake (%ID/g)
Please reply with the bare figure in %ID/g and do not write the unit itself.

Incoming: Entry CN1C(=O)C(NC(=O)c2cc3ccccc3[nH]2)N=C(c2ccccc2)c2ccccc21 (stereo in doubt) has what tissue uptake?
Outgoing: 0.25

====

test: In vivo distribution after coinjection of unlabeled carboxamide (receptor-mediated binding); set-up: species or system rats; conditions: rat, pancreas, iv, 0.4 mg/kg, pancreas, 30 min, i.v. coinjection with 0.4 mg/kg (R)-indole-2-carboxamide; 95% confidence intervals (Table 3); read-out: % DOSE/GRAM in rat pancreas, coinjection
measure: tissue uptake at 0.5 h (%ID/g)
Please reply with the bare figure in %ID/g and do not write the unit itself.

Incoming: Entry CN1C(=O)[C@@H](NC(=O)c2ccc([123I])cc2)N=C(c2ccccc2)c2ccccc21 has what tissue uptake at 0.5 h?
Outgoing: 0.727

====

assay: In vivo distribution necropsy after i.v. injection; design: species or system rats; conditions: rat, transverse colon, iv, 10 uCi, transverse colon, 30 min post-i.v. injection of 10 μCi; 95% confidence intervals (Table 4); read-out: % DOSE/GRAM, Transverse Colon
measure: tissue uptake at 0.5 h (%ID/g)
Please reply with the bare figure in %ID/g and do not write the unit itself.

Incoming: Entry CN1C(=O)[C@@H](NC(=O)c2ccc([123I])cc2)N=C(c2ccccc2)c2ccccc21 has what tissue uptake at 0.5 h?
Outgoing: 0.5
